Parameter Oedema using croton oil (mouse) ED 50: see the listing below.
- System: male mice
- assay.info: Ear oedema test induced by croton oil
- Assay type: in vivo
- run.parameters: applied to the ear, 6 hours
attribute.measured: Oedema using croton oil (mouse) ED 50 (μg/ear)

| compound | attribute.measured | value.observed |
| --- | --- | --- |
| C[C@]12C=CC(=O)C=C1CC[C@@H]1[C@@H]2[C@@H](O)C[C@@]2(C)[C@H]1CC[C@]2(O)C(=O)CO [Prednisolone, reference compound] | Oedema using croton oil (mouse) ED 50 | 4 |
| C[C@@H]1C[C@H]2[C@@H]3CCC4=CC(=O)C=C[C@]4(C)[C@@]3(F)[C@@H](O)C[C@]2(C)[C@@]1(O)C(=O)CO [Dexamethasone, reference compound] | Oedema using croton oil (mouse) ED 50 | 1 |
| C[C@@H]1C[C@H]2[C@@H]3CCC4=CC(=O)C=C[C@]4(C)[C@@]3(F)[C@@H](O)C[C@]2(C)[C@H]1C(=O)CC#N | Oedema using croton oil (mouse) ED 50 | 2 |
| CSCC(=O)[C@H]1[C@H](C)C[C@H]2[C@@H]3CCC4=CC(=O)C=C[C@]4(C)[C@@]3(F)[C@@H](O)C[C@@]21C | Oedema using croton oil (mouse) ED 50 | 10 |

Taken from patent US6492536B2.
